- Test system: Tilletia caries
- Assay: Treatment of oat seeds infested with Tilletia caries (spore germination)
- Type: in vivo
- Study Conditions: 20 g active agent per 100 kg
Parameter: % activity. Scope: all listed entries.
Measured Endpoint: % activity (%)

INSERT INTO results (compound, unit_text, readout_number) VALUES
  ('CCNC(=O)c1nnc(S(=O)(=O)CC)s1', '%', 100),
  ('CS(=O)(=O)c1nnc(C(=O)NC2CC2)s1', '%', 98),
  ('CCCNC(=O)c1nnc([S+](C)[O-])s1 (stereo not shown)', '%', 100),
  ('CCC[S+]([O-])c1nnc(C(=O)N(C)C)s1 (stereo not shown)', '%', 100),
  ('CCC[S+]([O-])c1nnc(C#N)s1 (stereo not shown)', '%', 100),
  ('CCCCNC(=O)c1nnc(S(=O)(=O)CCC)s1', '%', 99.7),
  ('C[S+]([O-])c1nnc(C(=O)NC2CC2)s1 (stereo not shown)', '%', 98),
  ('CC(C)NC(=O)c1nnc(S(C)(=O)=O)s1', '%', 100),
  ('CCS(=O)(=O)c1nnc(C(=O)N2CCCC2)s1', '%', 100),
  ('CCNC(=O)c1nnc([S+](C)[O-])s1 (stereo not shown)', '%', 100),
  ('CCCS(=O)(=O)c1nnc(C(N)=O)s1', '%', 100),
  ('CCCS(=O)(=O)c1nnc(C#N)s1', '%', 100),
  ('CCCC[S+]([O-])c1nnc(C(N)=O)s1 (stereo not shown)', '%', 95);

====

- Tested on: Helminthosporium gramineum
- Assay: Seed treatment in open field tests for infestation by Helminthosporium gramineum (barley)
- Assay type: in vivo
- Study Conditions: summer barley; 50 g active agent/100 kg barley; about 3 months
Parameter: % activity. Scope: all listed entries.
Measured Endpoint: % activity (%)

INSERT INTO measurements (molecule, unit_text, readout_number) VALUES
  ('CNC(=O)c1nnc(S(C)(=O)=O)s1', '%', 100),
  ('CCC(C)S(=O)(=O)c1nnc(C(N)=O)s1 (centres unmarked)', '%', 94),
  ('CCS(=O)(=O)c1nnc(C(=O)N(C)C)s1', '%', 99.5),
  ('CCS(=O)(=O)c1nnc(C(=O)NCCCOC)s1', '%', 96),
  ('CCS(=O)(=O)c1nnc(C(=O)N2CCOCC2)s1', '%', 99.3),
  ('C=CCNC(=O)c1nnc(S(=O)(=O)CC)s1', '%', 100),
  ('CC(C)S(=O)(=O)c1nnc(C#N)s1', '%', 99.8),
  ('CCS(=O)(=O)c1nnc(C(=O)N2CCCC2)s1', '%', 100),
  ('CCCNC(=O)c1nnc(S(C)(=O)=O)s1', '%', 100),
  ('CCC[S+]([O-])c1nnc(C#N)s1 (centres unmarked)', '%', 99.3),
  ('CCS(=O)(=O)c1nnc(C(=O)NC)s1', '%', 100);

====

- Tested on: Alternaria solani
- Assay: Inhibition of fungus in a nutrient solution: Alternaria solani;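 note: 0 means no fungus growth and higher grades mean more surface covered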
- Format: cell-based
- Study Conditions: 0.002%, 6 days at 21-23° C.
Parameter: fungus development on the surface of the nutrient solution (0-5). Scope: all listed entries.
Measured Endpoint: fungus development on the surface of the nutrient solution (0-5)

INSERT INTO results (structure_smiles, result) VALUES
  ('CCCCNC(=O)c1nnc(S(=O)(=O)CC)s1', 1),
  ('CCOC(=O)c1nnc(S(=O)(=O)CC)s1', 0),
  ('CC(C)S(=O)(=O)c1nnc(C#N)s1', 0),
  ('CS(=O)(=O)c1nnc(C#N)s1', 0),
  ('CCS(=O)(=O)c1nnc(C#N)s1', 0),
  ('COC(=O)c1nnc(S(C)(=O)=O)s1', 1),
  ('CC(C)CS(=O)(=O)c1nnc(C(N)=O)s1', 0);

====

- System: Pythium ultimum
- Assay: Threshold concentration test for use of the compounds against Pythium ultimum (infested soil, garden peas)
- Type: in vivo
- Design: key: 4: white roots without fungous necrosis; 3: white roots, minor fungous necrosis; 2: brown roots, already more pronounced fungous necrosis; 1: heavy fungous necrosis, roots rotted
- Study Conditions: 20 mg/l soil; 3 weeks
Measured Endpoint: root evaluation (1-4)

INSERT INTO assay_data (compound, readout_number) VALUES
  ('CCCCS(=O)(=O)c1nnc(C(N)=O)s1', 1),
  ('CNC(=O)c1nnc(S(C)(=O)=O)s1', 4),
  ('CS(=O)(=O)c1nnc(C#N)s1', 3),
  ('CCS(=O)(=O)c1nnc(C(=O)NCCCOC)s1', 1),
  ('CN(C)C(=O)c1nnc(S(C)(=O)=O)s1', 4),
  ('C=CCNC(=O)c1nnc([S+]([O-])CCC)s1 (stereo not shown)', 2),
  ('CCCS(=O)(=O)c1nnc(C(=O)NCCCCl)s1', 1),
  ('CCS(=O)(=O)c1nnc(C(=O)N(C)C)s1', 4),
  ('CS(=O)(=O)c1nnc(C(N)=O)s1', 4),
  ('CCCS(=O)(=O)c1nnc(C(=O)N(C)C)s1', 2),
  ('COCCCNC(=O)c1nnc(S(C)(=O)=O)s1', 1),
  ('CCCC[S+]([O-])c1nnc(C(N)=O)s1 (stereo not shown)', 1),
  ('CCC[S+]([O-])c1nnc(C(=O)N(C)C)s1 (stereo not shown)', 1),
  ('C[S+]([O-])c1nnc(C#N)s1 (stereo not shown)', 4),
  ('CCCS(=O)(=O)c1nnc(C(=O)NC(C)C)s1', 1),
  ('C=CCNC(=O)c1nnc([S+](C)[O-])s1 (stereo not shown)', 4),
  ('CCCS(=O)(=O)c1nnc(C(N)=O)s1', 1),
  ('O=C1C2CC=CCC2C(=O)N1SC(Cl)(Cl)Cl (stereo not shown) [reference compound]', 1),
  ('CC(C)S(=O)(=O)c1nnc(C(N)=O)s1', 4),
  ('C=CCNC(=O)c1nnc(S(C)(=O)=O)s1', 4),
  ('CS(=O)(=O)c1nnc(C(=O)N2CCC2)s1', 4),
  ('CCS(=O)(=O)c1nnc(C(=O)NC(C)C)s1', 3),
  ('CCS(=O)(=O)c1nnc(C(=O)NCCOC)s1', 1),
  ('CCCNC(=O)c1nnc(S(=O)(=O)CCC)s1', 1),
  ('CCCCNC(=O)c1nnc(S(C)(=O)=O)s1', 2),
  ('CCCS(=O)(=O)c1nnc(C(=O)N2CCC2)s1', 1),
  ('CCS(=O)(=O)c1nnc(C(=O)N2CCCC2)s1', 2),
  ('CC(C)NC(=O)c1nnc(S(C)(=O)=O)s1', 4);

====

- Test system: Helminthosporium gramineum
- Assay: Seed treatment in open field tests for infestation by Helminthosporium gramineum (barley)
- Type: in vivo
- Study Conditions: summer barley; 50 g active agent/100 kg barley; about 3 months
Measured Endpoint: % activity (%)

INSERT INTO assay_data (compound, test_target, measured_endpoint, readout_number) VALUES
  ('CS(=O)(=O)c1nnc(C(N)=O)s1', 'Helminthosporium gramineum', '% activity', 100),
  ('CCS(=O)(=O)c1nnc(C(=O)NCCOC)s1', 'Helminthosporium gramineum', '% activity', 98),
  ('CCCNC(=O)c1nnc(S(=O)(=O)CC)s1', 'Helminthosporium gramineum', '% activity', 99.3),
  ('CC[S+]([O-])c1nnc(C#N)s1 (stereo not shown)', 'Helminthosporium gramineum', '% activity', 100),
  ('CC(C)CS(=O)(=O)c1nnc(C(N)=O)s1', 'Helminthosporium gramineum', '% activity', 99.5),
  ('CCNC(=O)c1nnc(S(=O)(=O)CC)s1', 'Helminthosporium gramineum', '% activity', 99.5),
  ('CCS(=O)(=O)c1nnc(C(=O)NC(C)C)s1', 'Helminthosporium gramineum', '% activity', 100);

====

- System: Pythium ultimum
- Assay: Threshold concentration test for use of the compounds against Pythium ultimum (infested soil, garden peas)
- Type: in vivo
- Study Conditions: 80 mg/l soil; 20 grains per dish; 3 weeks at 20-24° C.
Measured Endpoint: number of sound peas

INSERT INTO assay_data (compound, measured_endpoint, readout_number) VALUES
  ('COCCCNC(=O)c1nnc(S(C)(=O)=O)s1', 'number of sound peas', 19),
  ('CCCNC(=O)c1nnc(S(=O)(=O)CCC)s1', 'number of sound peas', 16),
  ('C[S+]([O-])c1nnc(C(=O)N2CCC2)s1 (stereo not shown)', 'number of sound peas', 19),
  ('CC(C)NC(=O)c1nnc(S(C)(=O)=O)s1', 'number of sound peas', 15),
  ('CCS(=O)(=O)c1nnc(C(=O)NCCCOC)s1', 'number of sound peas', 17),
  ('CCS(=O)(=O)c1nnc(C(=O)N(C)C)s1', 'number of sound peas', 15),
  ('CCS(=O)(=O)c1nnc(C(=O)N2CCC2)s1', 'number of sound peas', 20);

Data credit: patent US4281121A
